settings: [M+Na]+; instrument: DT; stepped-field
endpoint.label: collision cross section (N2) (Å²)

INSERT INTO results (compound, measurement) VALUES
  ('NC(N)=NCCC[C@H](N)C(=O)O', 147.8),
  ('OC[C@H]1OC(O)[C@H](O)[C@@H](O)[C@H]1O (some centres undefined)', 142.39),
  ('CCCCC/C=C\C\C=C/C=C/C=C/[C@@H](SC[C@H](NC(=O)CC[C@H](N)C(=O)O)C(=O)NCC(=O)O)[C@@H](O)CCCC(=O)O', 260.57),
  ('Nc1c(O)cccc1C(=O)CC(N)C(=O)O (racemic) [3-Hydroxy-DL-kynurenine]', 160.83),
  ('CN(C)C(=O)Nc1cccc(C(F)(F)F)c1', 161.2),
  ('N[C@@H](Cc1ccccc1)C(=O)O', 138.91),
  ('Cn1c(=O)c2c(ncn2C)n(C)c1=O', 142.93),
  ('CCCCC/C=C\C[C@@H](O)/C=C/C=C/C=C\[C@@H](O)CCCC(=O)O', 196.05),
  ('CCCCC[C@H](O)/C=C/[C@@H]1[C@@H](C/C=C\CCCC(=O)O)[C@@H]2C[C@H]1OO2', 202.63);
